# Procedure Summary: NCI Yeast Anticancer Drug Screen. Data for the mlh1 rad18 strain (AID 175)
# Condition Parameters: S. cerevisiae mlh1 rad18 strain growth inhibition; at 5.0 µM (retest, dose inferred, filed as 0.5)
The panel holds about 79,000 compounds, 15% with a hit somewhere; the sample as a whole holds those more often. Active and inactive are the calls of the source. Rule as the data show it: active = growth inhibition above about 70%; inactive = the rest.
Result category, one only: active, inactive

Some solved entries appear below for comparison.
| Molecule | Qualitative Label |
| --- | --- |
| c1cc2c(c3c1CN(C1CCCCC1)CO3)OCN(C1CCCCC1)C2 | inactive |
| CC(C)Cn1cnc2c(SCc3ccccc3[N+](=O)[O-])nc(N)nc21 | inactive |
| C=C(CN(C)C)C(=O)c1ccccc1C | inactive |
| CSC(=S)N/N=C(\C)c1ccc[nH]1 | inactive |
| CCCCCCCCCCCCCC(=O)OCCCC1CCCO1 (stereo unspecified) | inactive |

Now, please, on to the next molecule.
Could you kindly confirm the outcome this assay logged for `[O-][n+]1ccccc1Sc1nc(Sc2cccc[n+]2[O-])nc(Sc2cccc[n+]2[O-])n1` ?
active

Values from PubChem BioAssay (NCI)
